# assayDetails: chemical genetic growth profiling, strain panel (AID 1159580);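 note: tested at 20 µM; growth read once vehicle control cultures reached saturation at 30 °C; 1 = growth at the plate median or of vehicle wells; lower values mean less growth of the strain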
# conditionSummary: S. cerevisiae deletion strains, growth OD, locus YAL021C, strain ccr4
About 2,000 (36%) of roughly 5,500 compounds were called active. Inconclusive results (about 18%) are left out. Cut-off read from the data, not from the text of the source: active = normalized growth mostly below about 0.91 (no sharp cut-off); inconclusive = no clear call, values can overlap the other calls; inactive = mostly above about 0.92. This is one part of the list.
Outcome (select one): 1 (yes) = active, 0 (no) = inactive

input: What call does the record list for Cc1ccc(/C(=C\CN2CCCC2)c2ccccn2)cc1 ?
output: 0 (no)

###

# assayDetails: chemical genetic growth profiling, strain panel (AID 1159580);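 note: tested at 20 µM; growth read once vehicle control cultures reached saturation at 30 °C; 1 = growth at the plate median or of vehicle wells; lower values mean less growth of the strain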
# conditionSummary: S. cerevisiae deletion strains, growth OD, locus YIL066C, strain RNR3, hits give low values
The whole screen tested about 5,500 compounds, of which about 2,000 (36%) were called active. About 18% were inconclusive and are not listed. The list shows a part of the results.
measuredProperty: normalized growth
Respond with the number and no other words.

# annotated cases, reported normalized growth shown
In [3]: df
Out[3]:
                                   compound  quantitativereadout
0  O=C1CCCC2C3CC(CN12)[C@@H]1CCCCN1C3 (some centres undefined)                    1
1  COc1cc2c(c(OC)c1OC)-c1ccc(O)c(=O)cc1[C@@H](NC(C)=O)CC2                0.543
2  CC(=O)O[C@@H]1CC2C(C)(C)C(=O)CC[C@]2(C)C2CC[C@]3(C)C(=CC(=O)O[C@H]3c3ccoc3)[C@@]21C (some centres undefined)                0.948
3  CCCC1O[C@@H]2CC3C4CCC5=CC(=O)C=CC5(C)C4[C@@H](O)CC3(C)[C@]2(C(=O)CO)O1 (some centres undefined)                 1.01
4         Cc1ccc2cc3c(ccc4ccccc43)c3c2c1CC3                0.949
5          c1ccc2c(c1)cc1ccc3cccc4ccc2c1c34                 1.02

input: Which normalized growth is reported for this compound? C1CCN2CC3CC(CN4CCCCC34)C2C1 (centres undefined)
output: 1.02

input: Which normalized growth is reported for this compound? C=C[C@@H](C1=CC(=O)C(OC)=C(OC)C1=O)c1ccccc1
output: 0.148

input: Which normalized growth is reported for this compound? COC(=O)Oc1ccccc1C(=O)O
output: 0.987

###

# assayDetails: chemical genetic growth profiling, strain panel (AID 1159580);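 note: tested at 20 µM; growth read once vehicle control cultures reached saturation at 30 °C; 1 = growth at the plate median or of vehicle wells; lower values mean less growth of the strain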
# conditionSummary: S. cerevisiae deletion strains, growth OD, locus YCL016C, strain dcc1
Screen size: about 5,500 compounds; about 2,000 (36%) were called active. Roughly 18% stayed inconclusive and do not appear here. No stated cut-off is given here; in the data, active means normalized growth mostly below about 0.91 (no sharp cut-off); inconclusive means no clear call, values can overlap the other calls; inactive means mostly above about 0.92. The list shows a part of the results.
Outcome (select one): y (active), n (inactive)

Consider the worked cases shown below.
compound	cat
Nc1ccc([As](=O)(O)O)cc1	n
O=C1C=CC2=C3c4cc(O)c(O)cc4C[C@@]3(O)COC2=C1	n
C=C(CC)C(=O)c1ccc(OCC(=O)O)c(Cl)c1Cl	n
CN/C(=C\[N+](=O)[O-])NCCSCc1ccc(CN(C)C)o1	n

input: What call does the record list for C=C(C)[C@H]1CC=C(C(=O)O)CC1 ?
output: n

input: What call does the record list for O=C(O)C1=CCNCC1 ?
output: n

###

# assayDetails: chemical genetic growth profiling, strain panel (AID 1159580);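 note: tested at 20 µM; growth read once vehicle control cultures reached saturation at 30 °C; 1 = growth at the plate median or of vehicle wells; lower values mean less growth of the strain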
# conditionSummary: S. cerevisiae deletion strains, growth OD, locus YBR229C, strain ROT2
Among all 5,500 compounds or so, about 2,000 (36%) were called active. Another 18% or so got no clear call; they are omitted. No stated cut-off is given here; in the data, active means normalized growth mostly below about 0.91 (no sharp cut-off); inconclusive means no clear call, values can overlap the other calls; inactive means mostly above about 0.92. This is one part of the list.
Outcome (select one): active, inactive

                                   compound       cat
0              O=C(NC(=S)Nc1ccccn1)c1ccccc1  inactive
1  CCC(C(=O)Nc1ccc(C(F)(F)F)cc1)c1ccccc1 (stereo unspecified)  inactive
2     O=[N+]([O-])c1ccc(O)c([N+](=O)[O-])c1    active
3    CN(C)C=Nc1nnc(Sc2ncccc2[N+](=O)[O-])s1  inactive
4     CN(/N=C\c1ccccc1)c1ncc(C(F)(F)F)cc1Cl  inactive
5  CC(C)NCC(O)c1ccc2ccccc2c1 (stereo unspecified)  inactive
6  C[C@H]1[C@H]2CCC3C4CC=C5C[C@@H](N(C)C)CC[C@]5(C)C4CC[C@@]32CN1C (stereo partly specified)  inactive
7  CN1CCCC12NCCc1c2[nH]c2ccccc12 (stereo unspecified)  inactive
8  CN1C(CC(=O)c2ccccc2)CCCC1CC(O)c1ccccc1 (stereo unspecified)  inactive
9             CCCc1cc(Br)c(-n2cccc2)c(Br)c1  inactive

input: What call does the record list for CCSc1nnc(N)s1 ?
output: inactive

input: What call does the record list for C1CCN2C[C@@H]3C[C@H](CN4CCCC[C@@H]34)[C@H]2C1 ?
output: inactive

input: What call does the record list for C#CCOc1c(Cl)cccc1Cl ?
output: inactive

input: What call does the record list for COc1ccc(-c2c(C)nc3ccc(Cl)cc3c2-c2ccccc2)cc1OC ?
output: inactive

input: What call does the record list for NCCCC[C@H](N[C@@H](CCc1ccccc1)C(=O)O)C(=O)N1CCC[C@H]1C(=O)O ?
output: inactive

input: What call does the record list for Oc1c(Br)cc(Br)c2cccnc12 ?
output: active

input: What call does the record list for CC(=O)Nc1cc([As](=O)(O)O)ccc1O ?
output: inactive
